molecular target: recombinant hMCHr1 (Homo sapiens); test: MCHr1 functional assay ([35S]GTPγS); settings: hMCHr1 membranes, ED80 concentration of MCH
Sequence (Q99705 whole entry): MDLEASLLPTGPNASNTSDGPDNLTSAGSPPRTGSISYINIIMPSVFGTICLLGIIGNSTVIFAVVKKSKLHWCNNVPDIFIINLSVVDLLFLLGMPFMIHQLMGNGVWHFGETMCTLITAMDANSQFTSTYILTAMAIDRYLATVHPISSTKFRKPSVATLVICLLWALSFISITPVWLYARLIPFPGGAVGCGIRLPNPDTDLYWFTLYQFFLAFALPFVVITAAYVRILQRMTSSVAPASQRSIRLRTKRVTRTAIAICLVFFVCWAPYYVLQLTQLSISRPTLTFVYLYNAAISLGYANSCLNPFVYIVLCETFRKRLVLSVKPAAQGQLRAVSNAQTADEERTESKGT
valueKind: IC50
Field: value (include unit after the number)

Quickly give me recorded IC50 for CN1CCN(Cc2cccc(Cn3cnc4cc(-c5ccc(Cl)cc5)sc4c3=O)c2)CC1 0.042 µM

---

target: human melanin concentrating hormone receptor 1 (hMCHr1) (Homo sapiens)
valueKind: pIC50
The scale used: pIC50 is minus the common logarithm of the concentration in molar units.

Param request: pIC50 | system human melanin concentrating hormone receptor 1 (hMCHr1) (Homo sapiens) | item CN1[C@@H]2CC[C@H]1C[C@@H](Oc1cccc(Cn3cnc4cc(-c5ccc(Cl)cc5)sc4c3=O)c1)C2 7.59

---

target: hERG (Homo sapiens); experiment: hERG activity (planar-array-based voltage clamp); format: cell-based; conditions: modified method of Kiss et al.
Sequence (Q12809 whole entry): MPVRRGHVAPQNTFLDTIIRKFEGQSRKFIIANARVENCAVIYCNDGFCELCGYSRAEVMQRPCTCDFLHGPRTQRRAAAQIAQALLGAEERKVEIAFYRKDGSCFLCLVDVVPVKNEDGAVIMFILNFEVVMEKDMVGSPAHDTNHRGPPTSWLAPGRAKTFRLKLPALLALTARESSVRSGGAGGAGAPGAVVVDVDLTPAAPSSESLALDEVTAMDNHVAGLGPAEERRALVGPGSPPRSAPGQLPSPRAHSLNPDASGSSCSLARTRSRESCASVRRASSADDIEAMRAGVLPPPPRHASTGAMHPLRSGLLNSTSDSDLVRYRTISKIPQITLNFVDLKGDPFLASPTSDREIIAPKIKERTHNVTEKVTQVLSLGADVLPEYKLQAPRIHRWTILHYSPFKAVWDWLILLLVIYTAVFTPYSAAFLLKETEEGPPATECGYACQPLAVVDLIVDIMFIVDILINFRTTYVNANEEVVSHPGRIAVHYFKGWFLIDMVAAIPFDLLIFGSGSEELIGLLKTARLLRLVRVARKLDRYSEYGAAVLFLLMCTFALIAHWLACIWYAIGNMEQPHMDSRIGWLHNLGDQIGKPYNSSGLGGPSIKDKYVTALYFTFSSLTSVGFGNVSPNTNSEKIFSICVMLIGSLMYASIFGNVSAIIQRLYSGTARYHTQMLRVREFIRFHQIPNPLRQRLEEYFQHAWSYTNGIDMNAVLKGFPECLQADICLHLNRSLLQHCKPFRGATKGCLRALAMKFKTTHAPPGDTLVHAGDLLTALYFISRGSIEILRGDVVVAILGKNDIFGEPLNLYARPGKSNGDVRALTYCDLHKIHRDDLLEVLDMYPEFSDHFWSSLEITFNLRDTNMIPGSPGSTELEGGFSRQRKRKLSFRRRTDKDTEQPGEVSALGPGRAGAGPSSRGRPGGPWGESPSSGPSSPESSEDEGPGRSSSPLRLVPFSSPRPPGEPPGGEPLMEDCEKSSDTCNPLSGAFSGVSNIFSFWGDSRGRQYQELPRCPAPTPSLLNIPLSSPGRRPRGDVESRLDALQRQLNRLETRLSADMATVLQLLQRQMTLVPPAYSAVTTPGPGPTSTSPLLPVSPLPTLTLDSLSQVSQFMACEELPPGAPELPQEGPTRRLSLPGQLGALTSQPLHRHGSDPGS
valueKind: IC50 (µM)
The figure you give is taken to be in µM; do not add the unit.

Answer with reported IC50 of CN1[C@@H]2CC[C@H]1C[C@@H](Oc1cccc(Cn3cnc4cc(-c5ccc(Cl)cc5)sc4c3=O)c1)C2 6.5

Data provenance: patent US7723331B2
